assay: Pharmacokinetics in rats; format: in vivo; conditions: rat, plasma, blood plasma, read-out: Cmax (highest concentration of the active ingredient in the blood plasma)
Each entry below carries its recorded Cmax.
Give the value, in units of ng/mL, as a plain number.

Any idea what its Cmax is? The compound is CO[C@H]1/C=C/O[C@@]2(C)Oc3c(C)c(O)c4c(O)c(c(C=NN5CCN6CCCC6C5)c(O)c4c3C2=O)NC(=O)/C(C)=C\C=C\[C@H](C)[C@H](O)[C@@H](C)[C@@H](O)[C@@H](C)[C@H](OC(C)=O)[C@@H]1C (some centres unmarked)
11600

Next:
Any idea what its Cmax is? The compound is COC1C=COC2(C)Oc3c(C)c(O)c4c(O)c(c(C=NN5CC6CCCCN6CC5C)c(O)c4c3C2=O)NC(=O)C(C)=CC=CC(C)C(O)C(C)C(O)C(C)C(OC(C)=O)C1C (single isomer, unassigned) [Example 5 Isomer A]
19700

* * *

assay: Pharmacokinetics in mice; assay type: in vivo; conditions: mouse, in vivo, read-out: t/2 (half-life period of excretion) (converted)
Each entry below carries its recorded half-life.
Give the value, in units of h, as a plain number.

Some solved entries appear below for comparison.
Any idea what its half-life is? The compound is CO[C@H]1/C=C/O[C@@]2(C)Oc3c(C)c(O)c4c(O)c(c(C=NN5CCN6CCCC6C5)c(O)c4c3C2=O)NC(=O)/C(C)=C\C=C\[C@H](C)[C@H](O)[C@@H](C)[C@@H](O)[C@@H](C)[C@H](OC(C)=O)[C@@H]1C (stereo partly drawn) [Example 2]
9.1

Any idea what its half-life is? The compound is CO[C@H]1/C=C/O[C@@]2(C)Oc3c(C)c(O)c4c(O)c(c(C=NN5CCN6C(C)CCCC6C5)c(O)c4c3C2=O)NC(=O)/C(C)=C\C=C\[C@H](C)[C@H](O)[C@@H](C)[C@@H](O)[C@@H](C)[C@H](OC(C)=O)[C@@H]1C (stereo partly drawn) [Example 3]
14

Any idea what its half-life is? The compound is CCC1CCC2CN(N=Cc3c4c(O)c5c(O)c(C)c6c(c5c3O)C(=O)[C@@](C)(O/C=C/[C@H](OC)[C@@H](C)[C@@H](OC(C)=O)[C@H](C)[C@H](O)[C@H](C)[C@@H](O)[C@@H](C)/C=C/C=C(/C)C(=O)N4)O6)CCN2C1 (single isomer, unassigned) [Example 4 Isomer A]
55.1

Any idea what its half-life is? The compound is CO[C@H]1/C=C/O[C@@]2(C)Oc3c(C)c(O)c4c(O)c(c(C=NN5CCN6CCSCC6C5)c(O)c4c3C2=O)NC(=O)/C(C)=C\C=C\[C@H](C)[C@H](O)[C@@H](C)[C@@H](O)[C@@H](C)[C@H](OC(C)=O)[C@@H]1C (stereo partly drawn) [Example 8]
8.9

Any idea what its half-life is? The compound is CO[C@H]1/C=C/O[C@@]2(C)Oc3c(C)c(O)c4c(O)c(c(C=NN5CCN6C(CCC7CCCCC76)C5)c(O)c4c3C2=O)NC(=O)/C(C)=C\C=C\[C@H](C)[C@H](O)[C@@H](C)[C@@H](O)[C@@H](C)[C@H](OC(C)=O)[C@@H]1C (single isomer, unassigned) [Example 6 Isomer A]
33.4

Next:
Any idea what its half-life is? The compound is CO[C@H]1/C=C/O[C@@]2(C)Oc3c(C)c(O)c4c(O)c(c(C=NN5CCN6c7ccccc7CCC6C5)c(O)c4c3C2=O)NC(=O)/C(C)=C\C=C\[C@H](C)[C@H](O)[C@@H](C)[C@@H](O)[C@@H](C)[C@H](OC(C)=O)[C@@H]1C (stereo partly drawn) [Example 7]
32.2

* * *

assay: Pharmacokinetics in mice; format: in vivo; settings: mouse, plasma, blood plasma, read-out: Cmax (highest concentration of the active ingredient in the blood plasma)
Each entry below carries its recorded Cmax.
Give the value, in units of ng/mL, as a plain number.

Any idea what its Cmax is? The molecule is CO[C@H]1/C=C/O[C@@]2(C)Oc3c(C)c(O)c4c(O)c(c(C=NN5CCN6CCCC6C5)c(O)c4c3C2=O)NC(=O)/C(C)=C\C=C\[C@H](C)[C@H](O)[C@@H](C)[C@@H](O)[C@@H](C)[C@H](OC(C)=O)[C@@H]1C (stereo partly drawn)
57700

Any idea what its Cmax is? The molecule is CO[C@H]1/C=C/O[C@@]2(C)Oc3c(C)c(O)c4c(O)c(c(C=NN5CCN6C(C)CCCC6C5)c(O)c4c3C2=O)NC(=O)/C(C)=C\C=C\[C@H](C)[C@H](O)[C@@H](C)[C@@H](O)[C@@H](C)[C@H](OC(C)=O)[C@@H]1C (stereo partly drawn)
22600

Any idea what its Cmax is? The molecule is CCC1CCC2CN(N=Cc3c4c(O)c5c(O)c(C)c6c(c5c3O)C(=O)[C@@](C)(O/C=C/[C@H](OC)[C@@H](C)[C@@H](OC(C)=O)[C@H](C)[C@H](O)[C@H](C)[C@@H](O)[C@@H](C)/C=C/C=C(/C)C(=O)N4)O6)CCN2C1 (single isomer, unassigned) [Example 4 Isomer A]
29500

Any idea what its Cmax is? The molecule is CO[C@H]1/C=C/O[C@@]2(C)Oc3c(C)c(O)c4c(O)c(c(C=NN5CCN6c7ccccc7CCC6C5)c(O)c4c3C2=O)NC(=O)/C(C)=C\C=C\[C@H](C)[C@H](O)[C@@H](C)[C@@H](O)[C@@H](C)[C@H](OC(C)=O)[C@@H]1C (stereo partly drawn)
24000

More entries:
Any idea what its Cmax is? The molecule is CO[C@H]1/C=C/O[C@@]2(C)Oc3c(C)c(O)c4c(O)c(c(/C=N/N5CCN(C)CC5)c(O)c4c3C2=O)NC(=O)/C(C)=C\C=C\[C@H](C)[C@H](O)[C@@H](C)[C@@H](O)[C@@H](C)[C@H](OC(C)=O)[C@@H]1C [Rifampicin, reference compound]
24800

Any idea what its Cmax is? The molecule is CO[C@H]1/C=C/O[C@@]2(C)Oc3c(C)c(O)c4c(O)c(c(C=NN5CCN6CCSCC6C5)c(O)c4c3C2=O)NC(=O)/C(C)=C\C=C\[C@H](C)[C@H](O)[C@@H](C)[C@@H](O)[C@@H](C)[C@H](OC(C)=O)[C@@H]1C (stereo partly drawn)
72000

* * *

The molecules below have reported MIC for Mycobacterium tuberculosis TB H3 Rv.
Give the value, in units of µg/mL, as a plain number.

Some solved entries appear below for comparison.
Any idea what its MIC is? The molecule is CO[C@H]1/C=C/O[C@@]2(C)Oc3c(C)c(O)c4c(O)c(c(C=NN5CCN6CCCC6C5)c(O)c4c3C2=O)NC(=O)/C(C)=C\C=C\[C@H](C)[C@H](O)[C@@H](C)[C@@H](O)[C@@H](C)[C@H](OC(C)=O)[C@@H]1C (some centres unmarked)
0.1

Any idea what its MIC is? The molecule is CO[C@H]1/C=C/O[C@@]2(C)Oc3c(C)c(O)c4c(O)c(c(/C=N/N5CCN(C)CC5)c(O)c4c3C2=O)NC(=O)/C(C)=C\C=C\[C@H](C)[C@H](O)[C@@H](C)[C@@H](O)[C@@H](C)[C@H](OC(C)=O)[C@@H]1C [Rifampicin, reference compound]
0.03

Any idea what its MIC is? The molecule is CO[C@H]1/C=C/O[C@@]2(C)Oc3c(C)c(O)c4c(O)c(c(C=NN5CCN6c7ccccc7CCC6C5)c(O)c4c3C2=O)NC(=O)/C(C)=C\C=C\[C@H](C)[C@H](O)[C@@H](C)[C@@H](O)[C@@H](C)[C@H](OC(C)=O)[C@@H]1C (some centres unmarked)
0.06

Any idea what its MIC is? The molecule is CO[C@H]1/C=C/O[C@@]2(C)Oc3c(C)c(O)c4c(O)c(c(C=NN5CCN6CCSCC6C5)c(O)c4c3C2=O)NC(=O)/C(C)=C\C=C\[C@H](C)[C@H](O)[C@@H](C)[C@@H](O)[C@@H](C)[C@H](OC(C)=O)[C@@H]1C (some centres unmarked)
0.2

Next:
Any idea what its MIC is? The molecule is CO[C@H]1/C=C/O[C@@]2(C)Oc3c(C)c(O)c4c(O)c(c(C=NN5CCN6C(C)CCCC6C5)c(O)c4c3C2=O)NC(=O)/C(C)=C\C=C\[C@H](C)[C@H](O)[C@@H](C)[C@@H](O)[C@@H](C)[C@H](OC(C)=O)[C@@H]1C (some centres unmarked)
0.4

* * *

assay: Pharmacokinetics in rats; assay type: in vivo; conditions: rat, in vivo, read-out: t/2 (half-life period of excretion) (converted)
PROPERTY LABEL: half-life (h)
Give the value, in units of h, as a plain number.

Any idea what its half-life is? The molecule is CO[C@H]1/C=C/O[C@@]2(C)Oc3c(C)c(O)c4c(O)c(c(C=NN5CCN6CCCC6C5)c(O)c4c3C2=O)NC(=O)/C(C)=C\C=C\[C@H](C)[C@H](O)[C@@H](C)[C@@H](O)[C@@H](C)[C@H](OC(C)=O)[C@@H]1C (some centres unmarked) [Example 2]
13.2

More entries:
Any idea what its half-life is? The molecule is COC1C=COC2(C)Oc3c(C)c(O)c4c(O)c(c(C=NN5CC6CCCCN6CC5C)c(O)c4c3C2=O)NC(=O)C(C)=CC=CC(C)C(O)C(C)C(O)C(C)C(OC(C)=O)C1C (single isomer, unassigned) [Example 5 Isomer A]
58.5
